Data provenance is ChEMBL document CHEMBL1914434.

# Test system: Mus musculus
# measurement_description: Antipsychotic activity in ip dosed Swiss albino mouse assessed as inhibition of apomorphine-induced mesh climbing response administered 10 mins prior to apomorphine challenge measured at 5 mins intervals for up to 20 mins after 10 mins post dose
# Assay type: functional
Would you mind classing the entries by ED50? Ranges: low end (below 10 mg/kg), middle (10 mg/kg to below 20 mg/kg), high end (20 mg/kg or more)

molecule | category_label
O=C(CN1CCN(c2cccc(C(F)(F)F)c2)CC1)N(c1ccccc1)c1ccccc1 | high end

Prompt: Please classify: O=C(CN1CCN(c2ccc(Cl)c(Cl)c2)CC1)N(c1ccccc1)c1ccccc1
Response: high end

Prompt: Please report the category associated with Cc1ccc(N2CCN(CC(=O)N(c3ccccc3)c3ccccc3)CC2)cc1 , nothing else.
Response: high end

Prompt: Please let me know in which category the item O=C(CN1CCN(c2ccc(F)cc2)CC1)N(c1ccccc1)c1ccccc1 belongs.
Response: middle

Prompt: Band for the recorded ED50 of COc1ccccc1N1CCN(CC(=O)N(c2ccccc2)c2ccccc2)CC1 ?
Response: low end

Prompt: Please report the category associated with CN1CCN(C2=Nc3cc(Cl)ccc3Nc3ccccc32)CC1 [CLOZAPINE] , nothing else.
Response: low end

Prompt: Quick check: band for O=C(CN1CCN(c2ccc([N+](=O)[O-])cc2)CC1)N(c1ccccc1)c1ccccc1
Response: high end

Prompt: Exercise: read the entry O=C(CN1CCN(c2cccc(Cl)c2)CC1)N(c1ccccc1)c1ccccc1 and state which class it falls under.
Response: middle

Prompt: In plain terms, what class is Cc1cccc(N2CCN(CC(=O)N(c3ccccc3)c3ccccc3)CC2)c1C ?
Response: high end

###

# System: Mus musculus
# measurement_description: Antipsychotic activity in ip dosed Swiss albino mouse assessed as inhibition of 5-hydoxytryptophan-induced head twitches behavior administered 30 mins prior to 5-hydoxytryptophan challenge measured at 10 mins intervals for 30 mins after 20 mins post dose
# Type: functional
test_readout: log10 of ED50 (log10 of the value in mg/kg)
The figures below represent log10 of ED50, where ED50 is stated in mg/kg.

Worked examples follow.
smiles_structure | measured_result
Cc1ccc(N2CCN(CC(=O)N(c3ccccc3)c3ccccc3)CC2)cc1 | 1.49
O=C(CN1CCN(c2ccccc2)CC1)N(c1ccccc1)c1ccccc1 | 1.43
O=C(CN1CCN(c2ccc(F)cc2)CC1)N(c1ccccc1)c1ccccc1 | 1.30
COc1ccccc1N1CCN(CC(=O)N(c2ccccc2)c2ccccc2)CC1 | 1.10
CN1CCN(C2=Nc3cc(Cl)ccc3Nc3ccccc32)CC1 | 0.45
COc1cccc(N2CCN(CC(=O)N(c3ccccc3)c3ccccc3)CC2)c1 | 1.19

Note to self: log10 of ED50 recorded for O=C(CN1CCN(c2cccc(Cl)c2)CC1)N(c1ccccc1)c1ccccc1 was 1.26

The reported log10 of ED50 of the compound O=C(CN1CCN(c2cccc(C(F)(F)F)c2)CC1)N(c1ccccc1)c1ccccc1 was 1.48

###

// reported ED50 per item
# Species: Mus musculus
# measurement_description: Toxicity in albino mouse assessed as induction of catalepsy measured at 30 mins intervals until 240 mins
# Type: organism-based
# condition_label: in vivo
Write down the numeric answer in mg/kg and omit the unit.

smiles_structure | output_unit | ED50
COc1cccc(N2CCN(CC(=O)N(c3ccccc3)c3ccccc3)CC2)c1 | mg/kg | 55.4

Field: next compound
// ED50 value for COc1ccccc1N1CCN(CC(=O)N(c2ccccc2)c2ccccc2)CC1 : 50.4
